System: 186277-243-T-J2-PDC complex spheroid growth
run description: Anticancer human tumor 186277-243-T-J2-PDC patient-derived colon adenocarcinoma cell line growth inhibition [AhR]; active = viability on the fitted dose curve at most 10% of control; inactive = the rest
experimental setup: second compound 1 µM; first compound 10 µM
Description: Multicellular complex tumor spheroid response to aryl hydrocarbon receptor antagonists in combination with a variety of drugs and investigational agents in selected tumor cell lines […] Compounds. […] If the clinical Cmax for an agent had not been determined, the highest concentration tested was 10 microM (Table 1). […]
Thanks in advance; please answer with one of these: YES (active), NO (inactive)

How was NS(=O)(=O)OCC1CC(n2ccc3c(NC4CCc5ccccc54)ncnc32)CC1O (stereo unspecified) + Cc1ccccc1N=Nc1ccc(NC(=O)c2ccnn2C)c(C)c1 classified in this test?
NO

I'd appreciate the recorded outcome for O=C(c1cc(Cc2n[nH]c(=O)c3ccccc23)ccc1F)N1CCN(C(=O)C2CC2)CC1 + Cc1cncc(-c2nc(NCCc3c[nH]c4ccccc34)c3ncn(C(C)C)c3n2)c1 from this test.
NO

Identify the outcome logged in this assay for the compound shown: Nc1ccn(C2OC(CO)C(O)C2(F)F)c(=O)n1 (stereo unspecified) + Cc1ccccc1N=Nc1ccc(NC(=O)c2ccnn2C)c(C)c1
NO

Could you kindly confirm the outcome this assay logged for CC1(C)CCC(CN2CCN(c3ccc(C(=O)NS(=O)(=O)c4ccc(NCC5CCOCC5)c([N+](=O)[O-])c4)c(Oc4cnc5[nH]ccc5c4)c3)CC2)=C(c2ccc(Cl)cc2)C1 + Cc1ccccc1N=Nc1ccc(NC(=O)c2ccnn2C)c(C)c1 ?
NO

What is the recorded call for this compound in the test? O=C(C=Cc1cccc(S(=O)(=O)Nc2ccccc2)c1)NO + CC(CO)NC(=O)c1cc(-c2ccc(Cl)cc2)nn(-c2cnn(C)c2)c1=O
YES

Recorded call for CC(C)c1c(-c2ccccc2)nc2c(C#N)c[nH]n2c1=O + Cc1ccccc1N=Nc1ccc(NC(=O)c2ccnn2C)c(C)c1 ?
NO

====

System: 186277-243-T-J2-PDC complex spheroid growth
run description: Anticancer human tumor 186277-243-T-J2-PDC cell line growth inhibition [AhR];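 note: luminescent signal used as a stand-in for viable cell amount; spheroids exposed to compounds for seven days before the viability read; 100% = DMSO vehicle control wells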
experimental setup: second compound 3.16 µM; first compound 0.003 µM; active compounds read low
Decide using viability, T/C alone. Strictly below 90%: yes. Equal to or above 90%: no.

Please let me know if CC(C)CC(NC(=O)C(Cc1ccccc1)NC(=O)c1cnccn1)B(O)O (centres undefined) + CC(CO)NC(=O)c1cc(-c2ccc(Cl)cc2)nn(-c2cnn(C)c2)c1=O shows viability, T/C below 90%.
no

Below 90% on viability, T/C? Entry Nc1ncn(C2CC(O)C(CO)S2)c(=O)n1 (centres undefined) + Cc1ccccc1N=Nc1ccc(NC(=O)c2ccnn2C)c(C)c1
no

is_below(viability, T/C, 90%) for CC(C)CC(NC(=O)C(Cc1ccccc1)NC(=O)c1cnccn1)B(O)O (centres undefined) + Cc1cncc(-c2nc(NCCc3c[nH]c4ccccc34)c3ncn(C(C)C)c3n2)c1 ?
no

Dear colleague, could you confirm whether viability, T/C of Nc1ncn(C2CC(O)C(CO)S2)c(=O)n1 (centres undefined) + CC(CO)NC(=O)c1cc(-c2ccc(Cl)cc2)nn(-c2cnn(C)c2)c1=O falls below 90%? Thanks.
no

State whether 90% exceeds viability, T/C recorded for CCc1c2c(nc3ccc(O)cc13)-c1cc3c(c(=O)n1C2)COC(=O)[C@]3(O)CC + Cc1ccccc1N=Nc1ccc(NC(=O)c2ccnn2C)c(C)c1 .
no

Hello, I'm reviewing records and need to know if viability, T/C of CCc1c2c(nc3ccc(O)cc13)-c1cc3c(c(=O)n1C2)COC(=O)[C@]3(O)CC + CC(CO)NC(=O)c1cc(-c2ccc(Cl)cc2)nn(-c2cnn(C)c2)c1=O is below 90%. Could you check?
yes

I wonder whether CCc1c2c(nc3ccc(O)cc13)-c1cc3c(c(=O)n1C2)COC(=O)[C@]3(O)CC + Cc1cncc(-c2nc(NCCc3c[nH]c4ccccc34)c3ncn(C(C)C)c3n2)c1 has viability, T/C below 90%. Can you tell?
yes

Please check: viability, T/C for CC(C)CC(NC(=O)C(Cc1ccccc1)NC(=O)c1cnccn1)B(O)O (centres undefined) + Cc1ccccc1N=Nc1ccc(NC(=O)c2ccnn2C)c(C)c1 , strictly under 90% or not?
no

====

Test system: 186277-243-T-J2-PDC complex spheroid growth
run description: Anticancer human tumor 186277-243-T-J2-PDC cell line growth inhibition [AhR]; active = viability on the fitted dose curve at most 10% of control; inactive = the rest;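 note: luminescent signal used as a stand-in for viable cell amount; spheroids exposed to compounds for seven days before the viability read; 100% = DMSO vehicle control wells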
experimental setup: second compound 3.16 µM; first compound 0.316 µM
Assign a class; possible classes are 1.0 = active, 0.0 = inactive

Could you check what this test reported for Nc1ncn(C2CC(O)C(CO)O2)c(=O)n1 (centres undefined) + Cc1cncc(-c2nc(NCCc3c[nH]c4ccccc34)c3ncn(C(C)C)c3n2)c1 ?
0.0

What did this assay record as the result for CC1COCCN1c1cc(-c2ccnn2C)c2ccnc(-c3ccn[nH]3)c2n1 (centres undefined) + CC(CO)NC(=O)c1cc(-c2ccc(Cl)cc2)nn(-c2cnn(C)c2)c1=O ?
1.0

Check the results log: what was the call for CC1(C)CCC(CN2CCN(c3ccc(C(=O)NS(=O)(=O)c4ccc(NCC5CCOCC5)c([N+](=O)[O-])c4)c(Oc4cnc5[nH]ccc5c4)c3)CC2)=C(c2ccc(Cl)cc2)C1 + Cc1ccccc1N=Nc1ccc(NC(=O)c2ccnn2C)c(C)c1 ?
0.0

Which result was noted for this molecule in the test: O=C(C=Cc1cccc(S(=O)(=O)Nc2ccccc2)c1)NO + CC(CO)NC(=O)c1cc(-c2ccc(Cl)cc2)nn(-c2cnn(C)c2)c1=O
0.0

Recorded test call requested for CC1COCCN1c1cc(C2(S(C)(=N)=O)CC2)nc(-c2ccnc3[nH]ccc23)n1 (centres undefined) + Cc1ccccc1N=Nc1ccc(NC(=O)c2ccnn2C)c(C)c1
0.0

What did the test return for COc1ccc([C@@H](O)c2cc(-c3ncnc4cc(N5CCOCC5)ccc34)c(F)cc2Cl)nn1 + CC(CO)NC(=O)c1cc(-c2ccc(Cl)cc2)nn(-c2cnn(C)c2)c1=O ?
0.0

What outcome does the record of this test show for Nc1ncn(C2CC(O)C(CO)O2)c(=O)n1 (centres undefined) + CC(CO)NC(=O)c1cc(-c2ccc(Cl)cc2)nn(-c2cnn(C)c2)c1=O ?
0.0

Outcome logged for O=C(c1cc(Cc2n[nH]c(=O)c3ccccc23)ccc1F)N1CCN(C(=O)C2CC2)CC1 + Cc1cncc(-c2nc(NCCc3c[nH]c4ccccc34)c3ncn(C(C)C)c3n2)c1 in this assay:
0.0

Each molecule tested received a call. Report the one for NS(=O)(=O)OCC1CC(n2ccc3c(NC4CCc5ccccc54)ncnc32)CC1O (centres undefined) + Cc1ccccc1N=Nc1ccc(NC(=O)c2ccnn2C)c(C)c1 .
0.0

What outcome does the record of this test show for Nc1ccn(C2OC(CO)C(O)C2(F)F)c(=O)n1 (centres undefined) + CC(CO)NC(=O)c1cc(-c2ccc(Cl)cc2)nn(-c2cnn(C)c2)c1=O ?
1.0

Outcome logged for COc1ccc([C@@H](O)c2cc(-c3ncnc4cc(N5CCOCC5)ccc34)c(F)cc2Cl)nn1 + Cc1cncc(-c2nc(NCCc3c[nH]c4ccccc34)c3ncn(C(C)C)c3n2)c1 in this assay:
0.0

What did the test return for COc1cc(Nc2ncc3c(n2)-c2ccc(Cl)cc2C(c2c(F)cccc2OC)=NC3)ccc1C(=O)O + Cc1cncc(-c2nc(NCCc3c[nH]c4ccccc34)c3ncn(C(C)C)c3n2)c1 ?
0.0

What outcome does the record of this test show for Nc1ccccc1NC(=O)c1ccc(CNC(=O)OCc2cccnc2)cc1 + Cc1ccccc1N=Nc1ccc(NC(=O)c2ccnn2C)c(C)c1 ?
0.0

Could you please tell me the result logged for CC1COCCN1c1cc(C2(S(C)(=N)=O)CC2)nc(-c2ccnc3[nH]ccc23)n1 (centres undefined) + CC(CO)NC(=O)c1cc(-c2ccc(Cl)cc2)nn(-c2cnn(C)c2)c1=O in this assay?
0.0

State the result this test recorded for CC(C)c1c(-c2ccccc2)nc2c(C#N)c[nH]n2c1=O + Cc1cncc(-c2nc(NCCc3c[nH]c4ccccc34)c3ncn(C(C)C)c3n2)c1 .
0.0

What was the test verdict on COc1cc(C2c3cc4c(cc3C(OC3OC5COC(C)OC5C(O)C3O)C3COC(=O)C23)OCO4)cc(OC)c1O (centres undefined) + CC(CO)NC(=O)c1cc(-c2ccc(Cl)cc2)nn(-c2cnn(C)c2)c1=O ?
0.0

For O=C(C=Cc1cccc(S(=O)(=O)Nc2ccccc2)c1)NO + Cc1ccccc1N=Nc1ccc(NC(=O)c2ccnn2C)c(C)c1 , which call appears in the assay record?
0.0

Would you mind telling me which call this test gave Nc1ncn(C2CC(O)C(CO)O2)c(=O)n1 (centres undefined) + Cc1ccccc1N=Nc1ccc(NC(=O)c2ccnn2C)c(C)c1 ?
0.0

Per the records of this test, what outcome belongs to O=C(c1cc(Cc2n[nH]c(=O)c3ccccc23)ccc1F)N1CCN(C(=O)C2CC2)CC1 + CC(CO)NC(=O)c1cc(-c2ccc(Cl)cc2)nn(-c2cnn(C)c2)c1=O ?
0.0

Give the logged outcome of this assay for the following molecule: Nc1ccccc1NC(=O)c1ccc(CNC(=O)OCc2cccnc2)cc1 + CC(CO)NC(=O)c1cc(-c2ccc(Cl)cc2)nn(-c2cnn(C)c2)c1=O
0.0

Recorded test call requested for CC(C)c1c(-c2ccccc2)nc2c(C#N)c[nH]n2c1=O + Cc1ccccc1N=Nc1ccc(NC(=O)c2ccnn2C)c(C)c1
0.0

Look up the recorded call for CC1COCCN1c1cc(C2(S(C)(=N)=O)CC2)nc(-c2ccnc3[nH]ccc23)n1 (centres undefined) + Cc1cncc(-c2nc(NCCc3c[nH]c4ccccc34)c3ncn(C(C)C)c3n2)c1 in this test.
0.0

Which outcome was entered for the molecule CC1COCCN1c1cc(-c2ccnn2C)c2ccnc(-c3ccn[nH]3)c2n1 (centres undefined) + Cc1ccccc1N=Nc1ccc(NC(=O)c2ccnn2C)c(C)c1 in this test?
1.0

Outcome logged for COc1ccc([C@@H](O)c2cc(-c3ncnc4cc(N5CCOCC5)ccc34)c(F)cc2Cl)nn1 + Cc1ccccc1N=Nc1ccc(NC(=O)c2ccnn2C)c(C)c1 in this assay:
0.0
